Just for reference, ChEMBL document CHEMBL5058577 is where these values come from.

system: Fibroblast; experiment: Multiplex assay against human fibroblast; type: toxicity, cell-based; conditions: 24 h, 1 µM, compound concentration 1 uM, replicate 2
MEASURED_ATTRIBUTE: Population Pyknosed Nuclei (%)
Your answer is read as %, so omit the unit and give the number.

### Prompt Any idea what Population Pyknosed Nuclei (%) was measured for `COc1cc(OC2CCN(C(C)=O)CC2)ccc1C(=O)N1CCC(N2C(=O)OCc3ccccc32)CC1` ?
### Response 19

### Prompt Any idea what Population Pyknosed Nuclei (%) was measured for COc1c(Nc2ccc(S(C)(=O)=O)nc2C)ncnc1OC1CCN(C(=O)OC(C)C)CC1 [ADP-597] ?
### Response 24

### Prompt Any idea what Population Pyknosed Nuclei (%) was measured for O=C(O)CCC/C=C\CC1C(O)CC(O)C1/C=C/C(O)COc1cccc(Cl)c1 (centres undefined) [CLOPROSTENOL] ?
### Response 23

### Prompt Any idea what Population Pyknosed Nuclei (%) was measured for Cc1cc(NC(=O)NCCN2CCC(O)(Cc3ccccc3)CC2)c2ccccc2n1 [PALOSURAN] ?
### Response 22

### Prompt Any idea what Population Pyknosed Nuclei (%) was measured for Cc1ccc(OCC(O)C(C)NC(C)C)c2c1CCC2.Cl (centres undefined) ?
### Response 26

### Prompt Any idea what Population Pyknosed Nuclei (%) was measured for `Cc1cc(=O)n(C)c2cc(N3C(=O)CC[C@H](NS(=O)(=O)CC(C)C)[C@H]3c3ccc(Cl)cc3)ccc12` ?
### Response 29

### Prompt Any idea what Population Pyknosed Nuclei (%) was measured for `Cc1nn(C)c2nc(NNC(=O)Nc3cc(Cl)nc(Cl)c3)cc(C(C)C)c12` ?
### Response 9

### Prompt Any idea what Population Pyknosed Nuclei (%) was measured for Cc1cc(-c2ccc3c(c2)CC[C@H]3N2CC3(CCN(C(=O)Cc4cn5cc(C)sc5n4)CC3)C2)ncn1 [PF-5190457] ?
### Response 32

### Prompt Any idea what Population Pyknosed Nuclei (%) was measured for `Cc1sc2c(c1C)C(c1ccc(Cl)cc1)=N[C@H](CC(=O)OC(C)(C)C)c1nnc(C)n1-2` ?
### Response 20

----------
Field: Population Tubulin-Different-Phenotype (%). Provide a value for each of the compounds that follow.
tested on: U2OS; experiment: Multiplex assay against U2OS; format: toxicity, cell-based; settings: human, 24 h, 1 µM, compound concentration 1 uM, replicate 1
Non-standard residues stand in square brackets, D forms with d. Residues, ends and D or L forms follow the SMILES beside them.
Your answer is read as %, so omit the unit and give the number.

### Prompt Any idea what Population Tubulin-Different-Phenotype (%) was measured for O=C(NCCNCC(O)COc1ccc(O)cc1)N1CCOCC1.O=C(NCCNCC(O)COc1ccc(O)cc1)N1CCOCC1.O=C(O)/C=C/C(=O)O (configuration not stated) [XAMOTEROL FUMARATE] ?
### Response 1

### Prompt Any idea what Population Tubulin-Different-Phenotype (%) was measured for CC(C)C[C@H](CO)Nc1nc(S[C@@H](C)c2ccccc2)nc2nc(N)sc12 [AZD-8797] ?
### Response 2

### Prompt Any idea what Population Tubulin-Different-Phenotype (%) was measured for CC(C)(C)c1ccc(CSc2cnn(C(C)(C)C)c(=O)c2Cl)cc1 [PYRIDABEN] ?
### Response 1

### Prompt Any idea what Population Tubulin-Different-Phenotype (%) was measured for `C[C@@H]1CC(=O)Nc2cccc(-c3ccc4c(c3)c(-c3cnn(C)c3)nn4C)c2N1` ?
### Response 2

### Prompt Any idea what Population Tubulin-Different-Phenotype (%) was measured for CC(C)C[C@@H]1NC(=O)[C@@H](C(C)C)NC(=O)[C@@H]2CCCN2C(=O)[C@@H](CC(=O)O)NC(=O)[C@@H](Cc2c[nH]c3ccccc23)NC1=O [BQ-123] (cyclo(L[dW][dD]P[dV])) ?
### Response 1

### Prompt Any idea what Population Tubulin-Different-Phenotype (%) was measured for Cc1c(Cc2ccc3ccccc3n2)c2cc(F)ccc2n1CC(=O)O [TIMAPIPRANT] ?
### Response 4

### Prompt Any idea what Population Tubulin-Different-Phenotype (%) was measured for `COc1cc2nc(N3CCN(C(=O)COc4c(OC)cccc4C(C)C)CC3)nc(N)c2cc1OC.Cl.Cl` ?
### Response 4

### Prompt Any idea what Population Tubulin-Different-Phenotype (%) was measured for CSc1nc(NC2CCCC2)c([N+](=O)[O-])c(NC2CCCC2)n1 [GS-39783] ?
### Response 1

### Prompt Any idea what Population Tubulin-Different-Phenotype (%) was measured for `Cc1sc2c(c1C)C(c1ccc(Cl)cc1)=N[C@H](CC(=O)OC(C)(C)C)c1nnc(C)n1-2` ?
### Response 1

### Prompt Any idea what Population Tubulin-Different-Phenotype (%) was measured for `C[C@H](NC(=O)CNC(=O)c1cccc(Cl)c1)c1ccccc1` ?
### Response 2

### Prompt Any idea what Population Tubulin-Different-Phenotype (%) was measured for Cc1cc(-c2ccc3c(c2)CC[C@H]3N2CC3(CCN(C(=O)Cc4cn5cc(C)sc5n4)CC3)C2)ncn1 [PF-5190457] ?
### Response 5

### Prompt Any idea what Population Tubulin-Different-Phenotype (%) was measured for `CN1CCC(C(=O)c2cccc(NC(=O)c3c(F)cc(F)cc3F)n2)CC1` ?
### Response 3

### Prompt Any idea what Population Tubulin-Different-Phenotype (%) was measured for CN(C)C/C=C/C(=O)Nc1ccc(C(=O)N2CCCC(Nc3ncc(Cl)c(-c4c[nH]c5ccccc45)n3)C2)cc1 (configuration not stated) ?
### Response 6

### Prompt Any idea what Population Tubulin-Different-Phenotype (%) was measured for `Cc1nn(C)c2nc(NNC(=O)Nc3cc(Cl)nc(Cl)c3)cc(C(C)C)c12` ?
### Response 1

### Prompt Any idea what Population Tubulin-Different-Phenotype (%) was measured for `Cn1cc(C(=O)OCC2CCN(CCNS(C)(=O)=O)CC2)c2ccccc21` ?
### Response 3

### Prompt Any idea what Population Tubulin-Different-Phenotype (%) was measured for COCCCN1CCC(NC(=O)c2cc(Cl)c(N)c3c2OCC3)CC1 [PRUCALOPRIDE] ?
### Response 5

### Prompt Any idea what Population Tubulin-Different-Phenotype (%) was measured for CCC(=O)OCC(=O)[C@@]1(OC(=O)CC)[C@@H](C)C[C@H]2[C@@H]3CCC4=CC(=O)C=C[C@]4(C)[C@@]3(Cl)[C@@H](O)C[C@@]21C [BECLOMETHASONE DIPROPIONATE] ?
### Response 1

### Prompt Any idea what Population Tubulin-Different-Phenotype (%) was measured for `Cc1cc(=O)n(C)c2cc(N3C(=O)CC[C@H](NS(=O)(=O)CC(C)C)[C@H]3c3ccc(Cl)cc3)ccc12` ?
### Response 4

### Prompt Any idea what Population Tubulin-Different-Phenotype (%) was measured for CCCCC[C@H](O)/C=C/[C@H]1[C@H](O)CC(=O)[C@@H]1CCCCCCC(=O)O [ALPROSTADIL] ?
### Response 3

### Prompt Any idea what Population Tubulin-Different-Phenotype (%) was measured for O=c1ccc2ccc(OCCCCN3CCN(c4cccc5sccc45)CC3)cc2[nH]1 [BREXPIPRAZOLE] ?
### Response 18

### Prompt Any idea what Population Tubulin-Different-Phenotype (%) was measured for O=C(O)CCC/C=C\CC1C(O)CC(O)C1/C=C/C(O)COc1cccc(Cl)c1 (configuration not stated) [CLOPROSTENOL] ?
### Response 2

### Prompt Any idea what Population Tubulin-Different-Phenotype (%) was measured for O=c1nc2[nH]c3ccccc3nc-2c(=O)[nH]1 [ALLOXAZINE] ?
### Response 2

### Prompt Any idea what Population Tubulin-Different-Phenotype (%) was measured for Cc1cc(NC(=O)NCCN2CCC(O)(Cc3ccccc3)CC2)c2ccccc2n1 [PALOSURAN] ?
### Response 2

### Prompt Any idea what Population Tubulin-Different-Phenotype (%) was measured for C=CCN1C[C@H](C(=O)N(CCCN(C)C)C(=O)NCC)C[C@@H]2c3cccc4[nH]cc(c34)C[C@H]21 [CABERGOLINE] ?
### Response 0

### Prompt Any idea what Population Tubulin-Different-Phenotype (%) was measured for `S=C(NCCCc1c[nH]cn1)NCCCN(Cc1ccc(Cl)c(Cl)c1)c1ccc(Br)cn1` ?
### Response 9

### Prompt Any idea what Population Tubulin-Different-Phenotype (%) was measured for `OCCCNc1cc(-c2ccnc(Nc3cccc(Cl)c3)n2)ccn1` ?
### Response 6

### Prompt Any idea what Population Tubulin-Different-Phenotype (%) was measured for `COc1cc(OC2CCN(C(C)=O)CC2)ccc1C(=O)N1CCC(N2C(=O)OCc3ccccc32)CC1` ?
### Response 2
